target: Tyrosyl-tRNA synthetase, putative (Trypanosoma cruzi (strain CL Brener)) (UniProt Q4DSP6); assay: Trypanosoma cruzi tyrosyl tRNA synthetase (TcYRS) SOP; assay type: functional; parameters: scale not given: direction of the effect not stated beside the values; conditions: 30 µM
Sequence (Q4DSP6 as listed by the source): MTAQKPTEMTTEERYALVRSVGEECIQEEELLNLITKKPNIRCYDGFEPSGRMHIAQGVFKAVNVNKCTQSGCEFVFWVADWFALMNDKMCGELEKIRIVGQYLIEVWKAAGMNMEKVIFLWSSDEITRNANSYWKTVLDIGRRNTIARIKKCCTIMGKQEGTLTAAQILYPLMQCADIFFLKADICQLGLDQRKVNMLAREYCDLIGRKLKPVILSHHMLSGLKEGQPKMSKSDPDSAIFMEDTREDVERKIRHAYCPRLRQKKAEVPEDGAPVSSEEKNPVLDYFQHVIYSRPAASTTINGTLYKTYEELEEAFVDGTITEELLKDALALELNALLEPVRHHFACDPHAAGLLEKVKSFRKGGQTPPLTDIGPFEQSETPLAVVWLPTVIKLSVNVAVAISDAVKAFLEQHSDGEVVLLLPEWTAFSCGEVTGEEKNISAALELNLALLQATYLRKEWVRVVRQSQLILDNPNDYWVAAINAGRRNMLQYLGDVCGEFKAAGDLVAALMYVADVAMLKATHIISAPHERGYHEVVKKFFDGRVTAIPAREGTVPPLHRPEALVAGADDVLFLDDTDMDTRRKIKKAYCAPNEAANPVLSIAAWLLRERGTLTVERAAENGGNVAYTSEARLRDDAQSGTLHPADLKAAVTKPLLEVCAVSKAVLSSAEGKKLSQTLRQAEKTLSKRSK
Kindly apply the following: YES if Percent Effect is less than 10%, NO in every other case.

Hello, I'm reviewing records and need to know if Percent Effect of Cc1cnc2n(c1=O)CC(C(=O)NC1CC1)CS2 (configuration not stated) is below 10%. Could you check?
YES

Input CC(C(=O)N1CCCN(c2ncccc2C#N)CC1)n1ccnc1 (configuration not stated) ; condition: Percent Effect strictly below 10%. Does it hold?
NO

Hello, I'm reviewing records and need to know if Percent Effect of COc1cc(CNCc2ccnc(N3CCOCC3)c2)cc(Cl)c1OC is below 10%. Could you check?
NO

A record lists COc1cccc(CN2CCN(c3ccc4nncn4n3)C(C)C2)c1 (configuration not stated) . Is its Percent Effect below 10%?
YES

Does the reported Percent Effect of the following compound sit strictly below 10%? CNc1cc2c(nn1)CCN(C(=O)c1ccoc1)C2
YES

I'd appreciate it if you could check whether Cc1[nH]/c(=N\C(=O)c2csc(NCC(C)C)n2)sc1C has Percent Effect smaller than 10%.
NO

hey, is Percent Effect for O=C1C(NCc2nnc3n2CCCC3)CCCN1c1cccc(F)c1 (configuration not stated) lower than 10% or not?
NO

Here's an entry: O=S(=O)(C1CC1)N1CCOCC2(CCN(c3ccccn3)C2)C1 (configuration not stated) . Is its Percent Effect below 10%?
YES

# strict comparison: is reported Percent Effect < 10%? input = O=C1NCCN(CC2CC2)C12CCN(Cc1ccc3c(c1)OCO3)CC2
YES

Quick check: does CN(C)CC(=O)N1CCC2(CCN(Cc3ccccn3)C2=O)C1 (configuration not stated) have Percent Effect under 10%?
YES

Given O=C(COc1coc(CN2CCCCC2)cc1=O)Nc1ccccc1Cl , is recorded Percent Effect strictly lower than 10%?
NO

Consider Cc1cccnc1C(=O)N1CCCC(c2[nH]ncc2S(C)(=O)=O)C1 (configuration not stated) . Does its Percent Effect lie strictly below 10%?
YES

In plain terms, does Cc1ccc(N2CCCN(C(=O)C3(C#N)CCCCC3)CC2)nn1 come in under 10% for Percent Effect?
YES

Is Percent Effect strictly under 10% for the entry CCC(=O)NC1CCN(c2cccc(CC)c2)CC1 ?
YES

Hello, is Percent Effect of the following compound strictly smaller than 10%? COCCCNC(=O)N1CCCC(c2nncn2C)C1 (configuration not stated)
YES

Is 10% strictly greater than the compound's reported Percent Effect? compound: CN1CCCN(C(=O)c2ccc3c(c2)nc(N2CCOCC2)n3C)CC1
YES

Quick check: Percent Effect of CC(C)Cc1noc(CN(C)C(=O)C2COc3ccccc3C2)n1 (configuration not stated) under 10%?
NO

Decide: Percent Effect of COc1c(CNC2CCc3cc(F)ccc32)c(C)nn1C (configuration not stated) strictly below 10%?
YES

Report whether reported Percent Effect is lower than 10% (strictly) for CCc1ccc(S(=O)(=O)Nc2cn(C)cc(Br)c2=O)cc1
NO

A record lists CC(NC(=O)N1CCC(OCc2ccccc2)CC1)c1nncn1C (configuration not stated) . Is its Percent Effect below 10%?
NO

====

molecular target: Tyrosyl-tRNA synthetase, putative (Trypanosoma cruzi (strain CL Brener)); experiment: Trypanosoma cruzi tyrosyl tRNA synthetase (TcYRS) SOP; assay type: functional; design: scale not given: direction of the effect not stated beside the values; details: 30 µM
Param threshold (10%) applies to Percent Effect; output T when value >= threshold, F when value < threshold.

State whether the measured Percent Effect reaches 10%, counting equality as reaching it, for CCC(CC)C(O)CNC(=O)Nc1cc(C)nn1C (configuration not stated)
T

Identify whether the reported Percent Effect of the following molecule is 10% or greater: CNc1cc2c(nn1)CCN(C(=O)C1CCCc3ccccc31)C2 (configuration not stated)
F

Decide: Percent Effect of Cc1ccc(-c2nc(CN3CCCC3Cn3cc(C)cn3)no2)cc1 (configuration not stated) >= 10%?
T

Can O=C(NCC(O)CN1CCc2ccccc2C1)Nc1cccnc1 (configuration not stated) be said to have Percent Effect at or above 10%?
F

Evaluate Cc1cc(CN2CCN(CCOc3cccc(C#N)c3)CC2)no1 : Percent Effect at minimum 10%?
T

Check if Percent Effect >= 10% (inclusive). Item: Cc1nnc(N2CCC(CNC(=O)OC(C)(C)C)CC2)c(C#N)c1C
T

Would you say O=C(c1ccoc1)N1CCC2(CC1)C(=O)Nc1ccccc12 shows Percent Effect at minimum 10%?
T

Item CCCOCCCNc1nccc(-c2cn(C)nc2C)n1 with Percent Effect of 10% or above?
T

Given the entry COCCN1C(=O)CCC12CCN(C(=O)NC(C)C)CC2 , answer whether its Percent Effect meets or surpasses 10%.
F

Determine whether measured Percent Effect meets or exceeds 10% for CCN(CC)C(=O)CCNC(=O)Cc1nc(-c2ccco2)oc1C
F

State whether the measured Percent Effect reaches 10%, counting equality as reaching it, for c1ccc(OCCN2CCCC(c3noc(C4CC4)n3)C2)cc1 (configuration not stated)
F

In plain terms: is recorded Percent Effect at least 10% for O=C1CC[C@H]2CN(Cc3ccc(Cl)s3)CC[C@H]2N1CCc1c[nH]cn1 ?
F

Hello, I need to know if CN(C)CC1CN(Cc2ccsc2)Cc2nccn2C1 (configuration not stated) has measured Percent Effect not below 10%. Thanks!
T

Tell me whether Percent Effect is at least 10% here: O=C(c1cc[nH]n1)N1CCCC(c2cccc(-n3ccnc3)n2)C1 (configuration not stated)
T

Determine whether measured Percent Effect meets or exceeds 10% for Cc1ccn2cc(C(=O)N3CCCC3c3c(C)nn(C)c3C)nc2c1 (configuration not stated)
F

Exam item: decide whether the reported Percent Effect for O=C(CN1CCOC(Cn2cccn2)C1)Nc1nncs1 (configuration not stated) is at least 10%.
T

Given Cc1cccc(CN2C[C@@H]3COC[C@]3(CNC(=O)c3ccsc3)C2)n1 , state whether its Percent Effect is at least 10%.
T
